Recorded values, source patent US20250129103A1.

Assay: Determination of logD (1-octanol / phosphate buffer pH 7.4)
Type: physicochemical
Conditions: 1-octanol/phosphate buffer, pH 7.4, pH 7.4, 1-octanol/phosphate buffer; read-out: Log D, pH 7.4
measurement type: logD
Reply with the value as a number alone.

Short answer for "C#Cc1c(F)ccc2cccc(-c3ncc4c(N5CCN(C(=O)/C=C/CN6CC7CC(C6)O7)[C@@H](CC#N)C5)nc(OC[C@@]56CCCN5C[C@H](F)C6)nc4c3F)c12" : logD was 2.71

Record "Cc1cc(/C=C/C(=O)N2CCN(c3nc(OC[C@@]45CCCN4C[C@H](F)C5)nc4c(F)c(-c5cccc(Cl)c5C(F)(F)F)ncc34)C[C@@H]2CC#N)nc(C)n1" , field logD: 3.89

logD measured on "N#CC[C@H]1CN(c2nc(OC[C@@]34CCCN3C[C@H](F)C4)nc3c(F)c(-c4cccc5ccc(F)c(F)c45)ncc23)CCN1C(=O)/C=C/CN1CCCOCC1" = 2.9

Measured logD of "C[C@@H]1CN(C/C=C/C(=O)N2CCN(c3nc(OC[C@@]45CCCN4C[C@H](F)C5)nc4c(F)c(-c5cccc(Cl)c5C(F)(F)F)ncc34)C[C@@H]2CC#N)C[C@H](C)O1" : 3.5

Sample "N#CC[C@H]1CN(c2nc(OC[C@@]34CCCN3C[C@H](F)C4)nc3c(F)c(-c4cccc5cccc(F)c45)ncc23)CCN1C(=O)/C=C/CN1CCOCC1" ; logD observed: 2.91

Looking up "N#CC[C@H]1CN(c2nc(OC[C@@]34CCCN3C[C@H](F)C4)nc3c(F)c(-c4cccc5cccc(Cl)c45)ncc23)CCN1C(=O)/C=C/CN1CC[C@@H](F)C1" , I see its logD listed as 2.82

Data point: "Cc1nsc(/C=C/C(=O)N2CCN(c3nc(OC[C@@]45CCCN4C[C@H](F)C5)nc4c3C[C@H](C)[C@@H](c3nc(N)cc(C)c3C(F)(F)F)C4)C[C@@H]2CC#N)n1" ; logD = 4.59

response.value for "N#CC[C@H]1CN(c2nc(OC[C@@]34CCCN3C[C@H](F)C4)nc3c(F)c(-c4cccc5cccc(F)c45)ncc23)CCN1C(=O)/C=C/CN1CCSCC1" (field: logD) = 3.68

Record summary for "C[C@H]1CN(C/C=C/C(=O)N2CCN(c3nc(OC[C@@]45CCCN4C[C@H](F)C5)nc4c(F)c(-c5cccc6ccc(F)c(F)c56)ncc34)C[C@@H]2CC#N)C[C@H](C)O1" : reported logD = 3.42

Query "N#CC[C@H]1CN(c2nc(OC[C@@]34CCCN3C[C@H](F)C4)nc3c(F)c(-c4cccc5ccc(F)c(F)c45)ncc23)CCN1C(=O)/C=C/CN1CC[C@@H]2COC[C@H]21" yields logD of 2.95

====

Experiment: Determination of kinetic solubility (pH 7.4)
Type: physicochemical
Conditions: phosphate buffer, pH 7.4, aqueous buffer, kinetic from dmso stock, 50 mM phosphate buffer pH 7.4, read-out: Ksol, pH 7.4
measurement type: log10 of solubility kinetic at 2 h (log10 of the value in µg/mL)
Log scale reminder: solubility kinetic at 2 h in µg/mL, then log10 taken.

Record "N#CC[C@H]1CN(c2nc(OC[C@@]34CCCN3C[C@H](F)C4)nc3c(F)c(-c4cccc5cccc(Cl)c45)ncc23)CCN1C(=O)/C=C/CN1C2COCC1C2" , field log10 of solubility kinetic at 2 h: 2.04

log10 of solubility kinetic at 2 h recorded for this molecule, "CC1(c2noc(/C=C/C(=O)N3CCN(c4nc(OC[C@@]56CCCN5C[C@H](F)C6)nc5c(F)c(-c6cccc7cccc(Cl)c67)ncc45)C[C@@H]3CC#N)n2)CC1" , is -2.00

The molecule listed as "N#CC[C@H]1CN(c2nc(OCC34CCCN3CCC4)nc3c2CCN(c2cccc4cccc(Cl)c24)C3)CCN1C(=O)/C=C/CN1CCS(=O)(=O)CC1" has a reported log10 of solubility kinetic at 2 h of 2.03

Entry "Cc1cc(N)nc([C@@H]2Cc3nc(OC[C@@]45CCCN4C[C@H](F)C5)nc(N4CCN(C(=O)/C=C/c5nc([C@H]6C[C@@H]6F)no5)[C@@H](CC#N)C4)c3C[C@H]2C)c1C(F)(F)F" — recorded log10 of solubility kinetic at 2 h = -1.70

The molecule identified as "N#CC[C@H]1CN(c2nc(OCC34CCCN3CCC4)nc3c2CCN(c2cccc4cccc(Cl)c24)C3)CCN1C(=O)/C=C/CN1C[C@@H]2C[C@H]1CO2" registered its log10 of solubility kinetic at 2 h at 1.98

Just so you know, measured log10 of solubility kinetic at 2 h for "CCc1nccc(/C=C/C(=O)N2CCN(c3nc(OC[C@@]45CCCN4C[C@H](F)C5)nc4c(F)c(-c5cccc6ccc(F)c(Cl)c56)ncc34)C[C@@H]2CC#N)n1" came out at 1.66

So, N#CC[C@H]1CN(c2nc(OC[C@@]34CCCN3C[C@H](F)C4)nc3c(F)c(-c4cccc5cccc(Cl)c45)ncc23)CCN1C(=O)/C=C/CN1CCOC2CC21 (stereo partly drawn) ? Its log10 of solubility kinetic at 2 h was 1.88

log10 of solubility kinetic at 2 h measured on "N#CC[C@H]1CN(c2nc(OC[C@@]34CCCN3C[C@H](F)C4)nc3c(F)c(-c4cccc5ccc(F)c(F)c45)ncc23)CCN1C(=O)/C=C/CN1C[C@H]2C[C@@H]1CO2" = 1.75

According to the records, this molecule "N#CC[C@H]1CN(c2nc(OC[C@@]34CCCN3C[C@H](F)C4)nc3c(F)c(-c4cccc5ccc(F)c(F)c45)ncc23)CCN1C(=O)/C=C/CN1CCCOCC1" displays log10 of solubility kinetic at 2 h of 1.90

According to the records, this molecule "Cc1nsc(/C=C/C(=O)N2CCN(c3nc(OC[C@@]45CCCN4C[C@H](F)C5)nc4c3CCN(c3cccc5cccc(Cl)c35)C4)C[C@@H]2CC#N)n1" displays log10 of solubility kinetic at 2 h of -2.00

The value of log10 of solubility kinetic at 2 h measured for the molecule "N#CC[C@H]1CN(c2nc(OC[C@@]34CCCN3C[C@H](F)C4)nc3c(F)c(-c4cccc5ccc(F)c(Cl)c45)ncc23)CCN1C(=O)/C=C/CN1C[C@@H]2C[C@H]1CO2" turned out to be 1.95

log10 of solubility kinetic at 2 h measured on "N#CC[C@H]1CN(c2nc(OC[C@@]34CCCN3C[C@H](F)C4)nc3c(F)c(-c4cccc5ccc(F)c(Cl)c45)ncc23)CCN1C(=O)/C=C/c1ccnc(C2CC2)n1" = -2.00

The molecule identified as "Cn1cnc(/C=C/C(=O)N2CCN(c3nc(OCC45CCCN4CCC5)nc4c3CCN(c3cccc5cccc(Cl)c35)C4)C[C@@H]2CC#N)n1" registered its log10 of solubility kinetic at 2 h at 1.95

# log10 of solubility kinetic at 2 h (molecule: "CO[C@H]1CCN(C/C=C/C(=O)N2CCN(c3nc(OC[C@@]45CCCN4C[C@H](F)C5)nc4c(F)c(-c5cccc6cccc(F)c56)ncc34)C[C@@H]2CC#N)C1" ) is 1.96

Recorded log10 of solubility kinetic at 2 h (molecule "Cc1cc(N)nc(-c2ncc3c(N4CCN(C(=O)/C=C/CN5CCOCC5)[C@@H](CC#N)C4)nc(OC[C@@]45CCCN4C[C@H](F)C5)nc3c2F)c1C(F)(F)F" ): 2.11

Lab book: log10 of solubility kinetic at 2 h of N#CC[C@H]1CN(c2nc(OC[C@@]34CCCN3C[C@H](F)C4)nc3c(F)c(-c4cccc5cccc(Cl)c45)ncc23)CCN1C(=O)/C=C/CN1CC2CCC1CO2 (stereo partly drawn) noted as 1.94

// sample "C#Cc1c(F)ccc2cccc(-c3ncc4c(N5CCN(C(=O)/C=C/c6ccnc(C)n6)[C@@H](CC#N)C5)nc(OC[C@@]56CCCN5C[C@H](F)C6)nc4c3F)c12" , its log10 of solubility kinetic at 2 h was 1.00

Measured log10 of solubility kinetic at 2 h, "CCc1c(F)ccc2cccc(-c3ncc4c(N5CCN(C(=O)/C=C/CN6[C@@H]7CC[C@H]6COC7)[C@@H](CC#N)C5)nc(OC[C@@]56CCCN5C[C@H](F)C6)nc4c3F)c12" : 1.89

Documented log10 of solubility kinetic at 2 h of "N#CC[C@H]1CN(c2nc(OCC34CCCN3CCC4)nc3c2CCN(c2cccc4cccc(Cl)c24)C3)CCN1C(=O)/C=C/c1nc([C@H]2C[C@@H]2F)no1" : 0.42

Record "N#CC[C@H]1CN(c2nc(OC[C@@]34CCCN3C[C@H](F)C4)nc3c(F)c(-c4cccc(Cl)c4C4CC4)ncc23)CCN1C(=O)/C=C/CN1C[C@@H]2C[C@H]1CO2" . Reported log10 of solubility kinetic at 2 h: 1.96

// log10 of solubility kinetic at 2 h lookup, molecule = "Cc1cc(/C=C/C(=O)N2CCN(c3nc(OC[C@@]45CCCN4C[C@H](F)C5)nc4c(F)c(-c5cccc6ccc(F)c(F)c56)ncc34)C[C@@H]2CC#N)nc(C)n1" , result: 0.72
